Measured t1/2 of individual entries
biological target: … (SEQ ID NO: 1)-HLA-A*02 complex (human); assay: SPR (BIAcore) or BLI (Octet) per Example 3, immobilised biotinylated pHLA, 25 C
Express it in h; write the number only.

Looking up ImmTAC molecule a28b75 (TCR-anti-CD3 fusion) (TCR, part only; not given: TCR constant regions and anti-CD3 scFv, not shown: a dimerising Fc or GST) TCR alpha, part: GDAKTTQPNSMESNEEEPVHLPCNHSTISGTDYIHWYRQLPSQGPEYVIHGLTSNVNNRMASLAIAEDRKSSTLILHRATLRDAAVYYCILILGHSRAGNYIATFGKGTKLSVIP TCR beta, part: DGGITQSPKYLFRKEGQNVTLSCEQNLNHDAMYWYRQDPGQGLRLIYYSQIMGDEQKGDIAEGYSVSREKKESFPLTVTSAQKNPTAFYLCASSWWTGGSAPISFGPGTRLTVT , I found its t1/2 recorded as 5.1

Looking up ImmTAC molecule a79b66 (TCR-anti-CD3 fusion) (TCR, part only; not given: anti-CD3 scFv, linker, constant regions, not shown: a dimerising Fc or GST) TCR alpha, part: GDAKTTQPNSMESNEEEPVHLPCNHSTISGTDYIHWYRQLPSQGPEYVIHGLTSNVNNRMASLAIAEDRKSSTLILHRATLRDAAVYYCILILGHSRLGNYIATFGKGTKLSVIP TCR beta, part: DGGITQSPKYLFRKEGQNVTLSCEQNLNHDAMYWYRQDPGQGLRLIYYSQIMGDEQKGDIAEGYSVSREKKESFPLTVTSAQKNPTAFYLCASSPWTGGSAPIRFGPGTRLTVT , I found its t1/2 recorded as 9.16

Looking up ImmTAC molecule a79b64 (TCR-anti-CD3 fusion) (TCR, part only; not given: anti-CD3 scFv, linker, constant regions, not shown: a dimerising Fc or GST) TCR alpha, part: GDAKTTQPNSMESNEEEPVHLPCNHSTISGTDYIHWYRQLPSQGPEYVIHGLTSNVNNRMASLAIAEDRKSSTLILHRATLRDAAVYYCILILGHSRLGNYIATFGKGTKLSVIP TCR beta, part: DGGITQSPKYLFRKEGQNVTLSCEQNLNHDAMYWYRQDPGQGLRLIYYSQIMNDEQKGDIAEGYSVSREKKESFPLTVTSAQKNPTAFYLCASSWWTGGSAPIRFGPGTRLTVT , I found its t1/2 recorded as 6.38
